TARGET_UNDER_TEST: T1, RSV-F.mmh (Respiratory Syncytial Virus)
T1 construct: also called recombinant RSV-F; soluble monomeric RSV-F
EXPERIMENTAL_PROTOCOL: SPR (Biacore), mAb captured via Fc, soluble RSV-F.mmh injected, 25 C
ENDPOINT_NAME: koff (s⁻¹)
Give the value, in units of s⁻¹, as a plain number.

Q: Fill in: koff of H1M3627N (antibody, V domains shown) VH: EVQLVESGGGLVQPGGSLRLSCAASGFTISNYEMNWVRQAPGKGLEWVSYISTSGITIYYADSVQGRFTISRDNAKNSLYLQLNSLRAEDTAVYYCARGYCTNGVCYPHYYYSDMDVWGQGTTVTVSS VL: DIQMTQSPSSLSASVGDRLTITCRASQTISTYLNWFQQKVGNAPKLLIYSTSSLQSGVPARFSGSGSGTDFTLTISSLQPEDFATYYCQQSYSSPPTFGQGTKVEIK is ___
A: 0.000523
